Data origin, for the record: patent US20230114728A1

Let's look at some compounds and their measured MIC.
- Test system: N. gonorrhoeae WHO K
- test_details: Liquid broth MIC in Fastidious broth
- Type: cell-based
- run_conditions: Neisseria gonorrhoeae, read-out: Minimum Inhibitory Concentration, N. gonorrhoeae WHO K

compound	MIC
CCN1CCN(C(=O)N[C@@H](C(=O)N[C@H]2Cc3cccc(C(=O)O)c3OB2O)c2ccc(C(=O)O)cc2O)C(=O)C1=O (single isomer, unassigned) [Example 144]	16 to 32 µg/mL
CS(=O)(=O)N1CCN(C(=O)N[C@H](C(=O)N[C@H]2Cc3cccc(C(=O)O)c3OB2O)c2c(F)cc(O)cc2F)C1=O (single isomer, unassigned) [Example 136]	> 64 µg/mL

--- query ---
Query: Returns the measured MIC for the input compound. Input: NCCN1CCN(C(=O)N[C@@H](C(=O)N[C@H]2Cc3cccc(C(=O)O)c3OB2O)c2ccc(O)cc2F)C(=O)C1=O (single isomer, unassigned) [Example 89]
Reply: > 64 µg/mL

###

- System: A. baumannii CDC-0033 producing NDM-1, and OXA-94
Each record here notes measured MIC.

Solved entries:
compound	measured_parameter	value_reported
O=C(Nc1ccc(O)c(O)c1Cl)NC(C(=O)N[C@H]1Cc2ccc(F)c(C(=O)O)c2OB1O)c1ncc(O)cc1F (some centres unmarked)	MIC	32 to 64 µg/mL
NC1(CN2CCN(C(=O)N[C@@H](C(=O)N[C@H]3Cc4ccc(F)c(C(=O)O)c4OB3O)c3c(F)cc(O)c(O)c3Cl)C(=O)C2=O)CC1 (single isomer, unassigned)	MIC	32 to 64 µg/mL
NS(=O)(=O)Nc1cccc(C(NC(=O)N2CCN(Cc3c(F)cc(O)c(O)c3Cl)C(=O)C2=O)C(=O)N[C@H]2Cc3cccc(C(=O)O)c3OB2O)c1 (some centres unmarked)	MIC	> 128 µg/mL
NCCCN1CCN(C(=O)N[C@@H](C(=O)N[C@H]2Cc3ccc(F)c(C(=O)O)c3OB2O)c2c(F)c(F)c(O)c(O)c2Cl)C(=O)C1=O	MIC	8 to 16 µg/mL
Nc1nc(/C(=N/OC[C@H](NC(=O)c2ccc(O)c(O)c2Cl)C(=O)O)C(=O)N[C@H]2Cc3cccc(C(=O)O)c3OB2O)cs1	MIC	32 to 64 µg/mL

Query: Fill in the recorded MIC for this compound, with A. baumannii CDC-0033 producing NDM-1, and OXA-94 as test system: NC1(CN2CCN(C(=O)N[C@@H](C(=O)N[C@H]3Cc4ccc(F)c(C(=O)O)c4OB3O)c3cc(F)c(O)c(O)c3Cl)C(=O)C2=O)CC1 (single isomer, unassigned)
Reply: 8 to 16 µg/mL

Query: API: value(readout=MIC, system=A. baumannii CDC-0033 producing NDM-1, and OXA-94) for record NCCN1CCN(C(=O)N[C@@H](C(=O)N[C@H]2Cc3ccc(F)c(C(=O)O)c3OB2O)c2c(F)c(F)c(O)c(O)c2Cl)C(=O)C1=O
Reply: 8 to 16 µg/mL

Query: # returns recorded MIC (system: A. baumannii CDC-0033 producing NDM-1, and OXA-94) for NCCN1CCN(C(=O)N[C@@H](C(=O)N[C@H]2Cc3ccc(F)c(C(=O)O)c3OB2O)c2c(F)cc(O)c(O)c2Cl)C(=O)C1=O (single isomer, unassigned)
Reply: 2 to 4 µg/mL

Query: Param readout= MIC; system= A. baumannii CDC-0033 producing NDM-1, and OXA-94; entry= Nc1nc(C(NC(=O)N2CCN(CCNC(=O)c3ccc(O)c(O)c3Cl)C(=O)C2=O)C(=O)N[C@H]2Cc3ccc(F)c(C(=O)O)c3OB2O)c(F)s1 (some centres unmarked) ; returns value.
Reply: 32 to 64 µg/mL

Query: Fill in the recorded MIC for this compound, with A. baumannii CDC-0033 producing NDM-1, and OXA-94 as test system: CS(=O)(=O)N1CCN(C(=O)N[C@@H](C(=O)N[C@H]2Cc3ccc(F)c(C(=O)O)c3OB2O)c2cc(F)c(O)c(O)c2Cl)C1=O (single isomer, unassigned)
Reply: 2 to 4 µg/mL

Query: Identify the measured MIC of CCN1CCN(C(=O)N[C@H](C(=O)N[C@H]2Cc3ccc(F)c(C(=O)O)c3OB2O)c2ccc(O)c(O)c2)C(=O)C1=O for A. baumannii CDC-0033 producing NDM-1, and OXA-94.
Reply: > 128 µg/mL
